# target_desc: human recombinant P2X7 receptors (Homo sapiens, UniProt Q99572)
# Construct: expressed in transfected cells
# Sequence (Q99572 1-595): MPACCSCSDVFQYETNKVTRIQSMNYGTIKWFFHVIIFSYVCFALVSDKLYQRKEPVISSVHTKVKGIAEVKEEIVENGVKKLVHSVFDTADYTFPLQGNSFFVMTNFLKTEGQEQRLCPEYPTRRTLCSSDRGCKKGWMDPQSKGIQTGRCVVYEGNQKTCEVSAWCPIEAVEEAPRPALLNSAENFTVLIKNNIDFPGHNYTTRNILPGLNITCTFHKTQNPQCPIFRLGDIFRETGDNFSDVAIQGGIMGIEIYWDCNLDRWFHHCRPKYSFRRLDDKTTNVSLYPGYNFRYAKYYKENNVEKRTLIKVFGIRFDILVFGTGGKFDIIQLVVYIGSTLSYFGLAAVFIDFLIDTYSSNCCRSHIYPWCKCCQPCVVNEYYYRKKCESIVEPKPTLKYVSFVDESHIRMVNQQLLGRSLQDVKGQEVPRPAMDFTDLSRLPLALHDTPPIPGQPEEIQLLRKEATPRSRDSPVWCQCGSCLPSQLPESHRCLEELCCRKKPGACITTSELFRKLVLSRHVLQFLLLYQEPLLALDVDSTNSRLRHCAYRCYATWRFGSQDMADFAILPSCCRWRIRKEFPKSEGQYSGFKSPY
# measurement_notes: Fluorescent Imaging Plate Reader (FLIPR) Ca Assay
# Format: cell-based
# setup_conditions: blocking BzATP (60 μM) responses; HEK293 or U-2OS cells expressing human P2X7; read-out: pIC50 in the FLIPR Ca Assay (or a slightly modified version thereof), human P2X7 receptor antagonist activity (converted)
value_kind: IC50

// solved cases for IC50 follow
> print(dat)
                                   compound  endpoint.value
1  O=C(NCc1ccc(Cl)cc1Cl)C1CC(=O)N(C2CC2)C1 (centres unmarked)         ≤ 20 µM
2  CCN1CC(C(=O)NCc2cccc(C(F)(F)F)c2Cl)CC1=O (centres unmarked)         ≤ 20 µM
3  CN1CC(C(=O)NCc2ccc(Cl)cc2Cl)CC1=O (centres unmarked)         ≤ 20 µM
4  CC(C)CN1CC(C(=O)NCc2ccc(Cl)cc2Cl)CC1=O (centres unmarked)         ≤ 20 µM

Using known records, supply IC50 for O=C(NCc1ccc(Cl)cc1Cl)C1CC(=O)N(Cc2ccccc2)C1 (centres unmarked)
≤ 20 µM

====

# target_desc: human recombinant P2X7 receptors (Homo sapiens, UniProt Q99572)
# Construct: expressed in transfected cells
# Sequence (Q99572 1-595): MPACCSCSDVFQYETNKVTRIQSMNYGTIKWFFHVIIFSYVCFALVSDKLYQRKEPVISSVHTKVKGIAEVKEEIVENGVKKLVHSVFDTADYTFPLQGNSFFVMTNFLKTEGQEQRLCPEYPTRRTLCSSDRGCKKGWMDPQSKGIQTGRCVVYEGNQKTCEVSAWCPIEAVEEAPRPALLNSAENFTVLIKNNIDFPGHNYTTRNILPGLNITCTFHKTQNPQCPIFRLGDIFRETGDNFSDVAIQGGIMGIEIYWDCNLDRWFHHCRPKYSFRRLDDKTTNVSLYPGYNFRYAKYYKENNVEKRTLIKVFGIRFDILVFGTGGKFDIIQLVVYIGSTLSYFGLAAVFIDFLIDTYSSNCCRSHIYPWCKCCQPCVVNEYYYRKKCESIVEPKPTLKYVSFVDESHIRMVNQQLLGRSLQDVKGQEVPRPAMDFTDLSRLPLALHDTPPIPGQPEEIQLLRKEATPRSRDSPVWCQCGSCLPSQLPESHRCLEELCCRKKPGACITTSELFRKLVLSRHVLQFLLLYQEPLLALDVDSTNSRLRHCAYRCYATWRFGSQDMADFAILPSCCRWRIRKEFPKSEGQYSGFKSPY
# measurement_notes: Ethidium Accumulation Assay
# Format: cell-based
# setup_conditions: blocking ATP (1 mM) responses; HEK293 cells expressing human P2X7; read-out: pIC50 in the Ethidium Accumulation Assay (or a slightly modified version thereof), human P2X7 receptor antagonist activity (converted)
Overview of recorded IC50 for various molecules

> print(dat)
                                   molecule  value.kind  endpoint.value
1  CN1CC(C(=O)NCc2cccc(C(F)(F)F)c2Cl)CC1=O (single isomer, unassigned) [5A stereoisomer 1]        IC50   158 to 200 nM

Output measured IC50 for this item: O=C(NCc1ccc(F)cc1Cl)C1CC(=O)N(C2CC2)C1 (stereo not shown) [Example 2]
< 3160 nM

Item C[C@H](c1ccccc1)N1CC(C(=O)NCc2ccc(F)cc2Cl)CC1=O (stereo partly shown) [Example 1] : provide IC50
< 3160 nM

Tell me measured IC50 for CN1CC(C(=O)NCc2cccc(C(F)(F)F)c2Cl)CC1=O (single isomer, unassigned) [5A stereoisomer 2] please.
39.8 to 50.1 nM
